Hello, the source for this data is patent USRE49735E1, in case you need it.

Experimental target: human mGluR5A (Homo sapiens, UniProt P41594)
Sequence (P41594 21-1180 isoform P41594-2): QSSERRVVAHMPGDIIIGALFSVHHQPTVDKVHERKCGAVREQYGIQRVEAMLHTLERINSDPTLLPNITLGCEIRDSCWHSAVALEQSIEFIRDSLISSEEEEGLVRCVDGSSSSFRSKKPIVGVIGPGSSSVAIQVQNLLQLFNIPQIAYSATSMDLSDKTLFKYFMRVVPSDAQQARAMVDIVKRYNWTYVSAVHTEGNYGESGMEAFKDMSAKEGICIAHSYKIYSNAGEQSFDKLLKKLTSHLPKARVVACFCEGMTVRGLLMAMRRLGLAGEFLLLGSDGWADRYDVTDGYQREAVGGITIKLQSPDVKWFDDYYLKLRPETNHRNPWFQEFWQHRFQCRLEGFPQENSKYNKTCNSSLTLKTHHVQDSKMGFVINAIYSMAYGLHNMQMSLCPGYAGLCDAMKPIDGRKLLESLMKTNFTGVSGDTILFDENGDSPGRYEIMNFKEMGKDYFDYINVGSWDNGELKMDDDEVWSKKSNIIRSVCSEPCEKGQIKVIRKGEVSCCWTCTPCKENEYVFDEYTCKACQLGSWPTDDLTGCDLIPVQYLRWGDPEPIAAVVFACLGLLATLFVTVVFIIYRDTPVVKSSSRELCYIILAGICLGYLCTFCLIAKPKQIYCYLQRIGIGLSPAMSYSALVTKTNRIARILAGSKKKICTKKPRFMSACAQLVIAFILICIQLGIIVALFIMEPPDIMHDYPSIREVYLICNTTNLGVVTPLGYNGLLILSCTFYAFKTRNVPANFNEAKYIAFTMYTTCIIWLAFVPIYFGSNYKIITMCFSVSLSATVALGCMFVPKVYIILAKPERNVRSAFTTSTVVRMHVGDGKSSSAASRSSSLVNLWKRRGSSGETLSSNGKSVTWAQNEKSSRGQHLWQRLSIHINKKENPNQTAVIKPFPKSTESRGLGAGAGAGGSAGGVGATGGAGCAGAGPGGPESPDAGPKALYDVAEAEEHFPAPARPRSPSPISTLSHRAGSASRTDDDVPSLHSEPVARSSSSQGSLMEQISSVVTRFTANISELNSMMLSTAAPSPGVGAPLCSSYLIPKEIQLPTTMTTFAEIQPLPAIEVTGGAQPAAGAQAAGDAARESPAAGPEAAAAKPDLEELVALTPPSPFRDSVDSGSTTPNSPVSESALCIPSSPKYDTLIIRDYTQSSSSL
Method description: mGluR5 FLIPR Assay
Experimental setup: positive modulator activity; HEK293 (ZF) cells with human mGluR5A and rat GLAST; Ca++ response to ~EC10 glutamate
Method: HEK293 (ZF) cells stably transfected with human mGluR5A (pIRES neo) and the rat glutamate-aspartate transporter (GLAST; pIRES puro) are grown in a monolayer culture at 37° C. in 5% CO2 and fed with Minimum Essential Medium (MEM) supplemented with 10% dialysed fetal bovine serum. […] Test compounds are incubated with cells in the presence of dye for 10 minutes prior to being read on the FLIPR platform (Molecular Devices). […]
pEC50: −log10 of the molar value.
// values below are reported pEC50

O=C1N[C@H](c2cncc(C#Cc3cncnc3)c2)[C@@H](c2cc(F)ccc2F)O1	6.00 to 7.00

Enquiry: Any idea what its pEC50 is? The compound is O=C1N[C@H](c2cc(C#Cc3ccccc3)ccn2)[C@@H](c2ccccc2)O1 (single isomer, unassigned)
Return: < 4.52

Enquiry: Any idea what its pEC50 is? The compound is COc1cccc([C@@H]2OC(=O)N[C@H]2c2cccc(C#Cc3cccc(C(F)(F)F)c3)c2)c1
Return: < 6.00

Enquiry: Any idea what its pEC50 is? The compound is COc1cccc([C@@H]2OC(=O)N[C@H]2c2cccc(C#Cc3ccc(F)cc3)c2)c1
Return: < 6.00

###

Experimental target: UniProtKB P41594
Method description: mGluR5 FLIPR Assay
Experimental setup: positive modulator activity; HEK293 (ZF) cells with human mGluR5A and rat GLAST; Ca++ response to ~EC10 glutamate
Experimental: HEK293 (ZF) cells stably transfected with human mGluR5A (pIRES neo) and the rat glutamate-aspartate transporter (GLAST; pIRES puro) are grown in a monolayer culture at 37° C. in 5% CO2 and fed with Minimum Essential Medium (MEM) supplemented with 10% dialysed fetal bovine serum. […] Test compounds are incubated with cells in the presence of dye for 10 minutes prior to being read on the FLIPR platform (Molecular Devices). […]
// values below are reported EC50

O=C1N[C@@H](c2cccc(C#Cc3ccc(F)cc3)n2)[C@H](c2ccccc2)O1 (single isomer, unassigned) [Example 17]	> 1000 nM
O=C1N[C@H](c2cccc(C#Cc3ccccc3)c2)[C@@H](c2ccncn2)O1 [Example 239]	< 100 nM
O=C1N[C@H](c2cccc(C#Cc3ccccn3)c2)[C@@H](c2ccncc2)O1 [Example 233]	< 100 nM
COc1cccc([C@H]2OC(=O)N[C@@H]2c2cccc(C#Cc3ccc(Cl)cc3)c2)c1 [Example 263]	> 1000 nM
C[C@@]1(c2cncc(C#Cc3ncccc3F)c2)NC(=O)O[C@H]1c1ccc(F)cc1 (single isomer, unassigned) [Example 344]	< 100 nM

// moving on: another record for EC50
Enquiry: # value lookup — system UniProtKB P41594, readout EC50, item O=C1NC(c2cccc(C#Cc3ccccc3)c2)C(c2cccc(F)c2)O1 (stereo not drawn) [Example 113]
Return: 100 to 1000 nM

###

Experimental target: human mGluR5A (Homo sapiens)
Method description: mGluR5 FLIPR Assay
Experimental setup: positive modulator activity; HEK293 (ZF) cells with human mGluR5A and rat GLAST; Ca++ response to ~EC10 glutamate
pEC50: −log10 of the molar value.
// values below are reported pEC50

O=C1N[C@H](c2cncc(C#Cc3ccccc3)c2)[C@H](c2cccc(Cl)c2Cl)O1 (single isomer, unassigned)	< 6.00
COc1ncc(C#Cc2ccccc2)cc1[C@H]1NC(=O)O[C@@H]1c1cc(F)ccc1F	< 6.00
O=C1N[C@H](c2cc(C#Cc3cncc(F)c3)ncc2F)[C@@H](c2ccc(F)cc2)O1	> 7.00

Enquiry: # value lookup — system human mGluR5A (Homo sapiens), readout pEC50, item COc1cccc([C@@H]2OC(=O)N[C@H]2c2cccc(C#Cc3ccccc3)n2)c1 (single isomer, unassigned)
Return: < 6.00

###

Experimental target: human mGluR5A (Homo sapiens)
Method description: mGluR5 FLIPR Assay
Experimental setup: positive modulator activity; HEK293 (ZF) cells with human mGluR5A and rat GLAST; Ca++ response to ~EC10 glutamate
Measured quantity: EC50

O=C1N[C@H](c2cc(C#Cc3cccc(F)n3)cnc2F)[C@@H](c2ccc(F)cc2)O1	< 100 nM
COc1cccc([C@H]2OC(=O)N[C@@H]2c2cccc(C#Cc3cccc(C#N)n3)c2)c1	> 30000 nM
O=C1N[C@H](c2cncc(C#Cc3cnccn3)c2)[C@@H](c2cc(F)ccc2F)O1	< 100 nM
O=C1N[C@@H](c2cccc(C#Cc3ccccc3)n2)[C@H](c2ccc(F)cc2)O1 (single isomer, unassigned)	> 1000 nM
O=C1N[C@H](c2cc(C#Cc3ccc4nccnc4c3)cnc2F)[C@@H](c2ccc(F)cc2)O1	> 1000 nM
C[C@@]1(c2ccccc2)OC(=O)N[C@@H]1c1cncc(C#Cc2ccccc2)c1	> 1000 nM

// moving on: another record for EC50
Enquiry: Any idea what its EC50 is? The compound is O=C1N[C@H](c2ccc(C#Cc3ccccc3)cn2)[C@@H](c2cccc(F)c2)O1
Return: > 1000 nM

###

Experimental target: human mGluR5A (Homo sapiens, UniProt P41594)
Method description: mGluR5 FLIPR Assay
Experimental setup: positive modulator activity; HEK293 (ZF) cells with human mGluR5A and rat GLAST; Ca++ response to ~EC10 glutamate
Measured quantity: EC50

COc1cccc([C@H]2OC(=O)N[C@@H]2c2cccc(C#Cc3ccc(Cl)nc3)c2)c1	100 to 1000 nM
COc1cccc([C@H]2OC(=O)N[C@@H]2c2cccc(C#Cc3cccnc3)c2)c1	< 100 nM

// moving on: another record for EC50
Enquiry: Any idea what its EC50 is? The compound is COc1cccc([C@H]2OC(=O)N[C@@H]2c2cccc(C#Cc3ccc(C(C)=O)cc3)c2)c1
Return: > 1000 nM

###

Experimental target: human mGluR5A (Homo sapiens, UniProt P41594)
Method description: mGluR5 FLIPR Assay
Experimental setup: positive modulator activity; HEK293 (ZF) cells with human mGluR5A and rat GLAST; Ca++ response to ~EC10 glutamate
Measured quantity: EC50

In the examples that follow, each entry is paired with its recorded EC50.
COc1cccc([C@H]2OC(=O)N[C@@H]2c2cccc(C#Cc3ccc(F)cc3)c2)c1	< 100 nM
O=C1N[C@H](c2cccc(C#Cc3cccnc3)c2)[C@@H](c2ccncn2)O1	> 1000 nM
O=C1N[C@@H](c2cncc(C#Cc3ccccn3)c2)[C@H](c2cc(F)cc(F)c2)O1	> 1000 nM
O=C1N[C@@H](c2cccc(C#Cc3ccccc3)n2)[C@H](c2ccc(F)cc2F)O1 (single isomer, unassigned)	> 1000 nM
O=C1N[C@@H](c2cncc(C#Cc3ccccc3)c2)[C@@H](c2ccnnc2)O1 (single isomer, unassigned)	> 1000 nM
Cc1ccc([C@@H]2OC(=O)N[C@H]2c2cccc(C#Cc3ccccc3)c2)cc1C (single isomer, unassigned) [Example 102]	> 1000 nM

Enquiry: Any idea what its EC50 is? The compound is C[C@@]1(c2ccc(F)cc2)OC(=O)N[C@H]1c1cncc(C#Cc2ccccc2)c1
Return: < 100 nM

Enquiry: Any idea what its EC50 is? The compound is O=C1N[C@@H](c2cc(C#Cc3cccc(Cl)c3)ccn2)[C@H](c2ccc(F)cc2)O1 (single isomer, unassigned)
Return: > 1000 nM

Enquiry: Any idea what its EC50 is? The compound is COc1cccc([C@H]2OC(=O)N[C@@H]2c2ccnc(C#Cc3ccccc3)c2)c1 (single isomer, unassigned)
Return: > 1000 nM

###

Experimental target: human mGluR5A (Homo sapiens)
Method description: mGluR5 FLIPR Assay
Experimental setup: positive modulator activity; HEK293 (ZF) cells with human mGluR5A and rat GLAST; Ca++ response to ~EC10 glutamate
pEC50: −log10 of the molar value.
// values below are reported pEC50

In the examples that follow, each entry is paired with its recorded pEC50.
C[C@@]1(c2cncc(C#Cc3ncccc3F)c2)NC(=O)O[C@H]1c1ccc(F)cc1 (single isomer, unassigned) [Example 343]	< 6.00
O=C1N[C@H](c2cncc(C#Cc3ccccc3)c2)[C@@H](c2cc(Cl)ccc2Cl)O1 (single isomer, unassigned)	< 5.52
O=C1N[C@H](c2cccc(C#Cc3ccccc3)c2)[C@@H](c2nc(-c3ccccc3)no2)O1	< 4.52
O=C1N[C@H](c2cccc(C#Cc3ccccc3F)n2)[C@@H](c2ccccc2)O1 (single isomer, unassigned) [Example 14]	< 6.00
O=C1N[C@@H](c2cccc(C#Cc3ccccc3)n2)[C@H](c2ccccc2)O1 (single isomer, unassigned)	< 6.00

Enquiry: Any idea what its pEC50 is? The compound is COc1cccc([C@H]2OC(=O)N[C@@H]2c2cccc(C#Cc3ccnnc3)c2)c1
Return: < 6.00

Enquiry: Any idea what its pEC50 is? The compound is O=C1N[C@H](c2cccc(C#Cc3ccccc3)c2)[C@@H](c2ccccc2)O1 (single isomer, unassigned)
Return: > 7.00

Enquiry: Any idea what its pEC50 is? The compound is COc1cccc([C@H]2OC(=O)N[C@@H]2c2cccc(C#Cc3cncc(C#N)c3)c2)c1
Return: > 7.00

Enquiry: Any idea what its pEC50 is? The compound is COc1cccc([C@H]2OC(=O)N[C@@H]2c2cccc(C#Cc3cnc4cc[nH]c4c3)c2)c1
Return: < 6.00
